Molecular target: human S1P3 receptor (Homo sapiens, UniProt Q99500)
Construct: expressed in transfected cells
Sequence (Q99500 whole entry): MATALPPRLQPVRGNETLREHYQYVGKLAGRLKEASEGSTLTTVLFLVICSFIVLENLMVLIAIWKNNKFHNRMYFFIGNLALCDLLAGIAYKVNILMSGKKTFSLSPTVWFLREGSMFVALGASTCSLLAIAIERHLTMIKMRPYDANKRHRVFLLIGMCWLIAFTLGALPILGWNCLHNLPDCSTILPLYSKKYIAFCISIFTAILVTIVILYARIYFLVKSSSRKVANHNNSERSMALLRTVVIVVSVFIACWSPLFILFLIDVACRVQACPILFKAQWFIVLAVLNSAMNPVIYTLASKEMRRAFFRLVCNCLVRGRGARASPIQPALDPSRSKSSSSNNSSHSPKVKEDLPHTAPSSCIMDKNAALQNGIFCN
Experiment: S1P3 FLIPR Ca2+ assay in T24 cells stably expressing the human S1P3 receptor
Type: cell-based
REPORTED ENDPOINT: % Antagonism, human S1P3 receptor from FLIPR (%)

COMPOUND | TGT | REPORTED MEASUREMENT
O=C(NC(Nc1ccc(Cl)cc1)C(Cl)(Cl)Cl)c1ccco1 (stereo not shown) | human S1P3 receptor (Homo sapiens, UniProt Q99500) | 98

1: O=C(NC(Nc1ccc(Cl)cc1)C(Cl)(Cl)Cl)c1ccc(Br)cc1 (single isomer, unassigned; (-))
2: O=C(NC(Nc1ccccc1C(F)(F)F)C(Cl)(Cl)Cl)c1ccco1 (stereo not shown)
// pick min by % Antagonism, human S1P3 receptor from FLIPR: 1 , 2 Pick one and reply with its label.
2

Source listed as patent US8049037B2.
